Every entry's value here was drawn from patent US20250197505A1.

SYSTEM: T1, human CD94 protein (human, UniProt Q13241 34-179, limits assumed)
T1 sequence (looked up): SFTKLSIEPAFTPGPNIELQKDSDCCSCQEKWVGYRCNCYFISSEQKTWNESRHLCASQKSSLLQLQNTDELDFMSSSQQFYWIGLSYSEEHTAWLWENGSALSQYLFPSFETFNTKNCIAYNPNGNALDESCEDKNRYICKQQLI
ASSAY_OVERVIEW: OCTET BLI, Fab on human CD94 protein
Use 0.004 s⁻¹ as the dividing line for koff, with the line itself on the MET side and lower values as NOT MET.

Look over these answered cases.
In plain terms: is recorded koff at least 0.004 s⁻¹ for Ab.31 Fab (Fab, V domains shown, Fab version) VH: EVQLLESGGGLVKPGGSLRLSCAASGFTFSSYSMNWVRQAPGKGLEWVSSISTSSNFIYYADSVKGRFTISRDNAKNSLYLQMNSLRAEDTAVYYCARDLGRYYYYMDVWGKGTTVTVSS VL: DIVMTQSPSSLSASVGDRVTITCRASQSISSWLAWYQQKPGKAPKSLIYAASSLQSGVPSRFSGSGSGTDFTLTISSLQPEDVATYYCQKYNSAPFTFGPGTKVDIK ?
NOT MET

Consider next the binder Ab.27 Fab (Fab, V domains shown, Fab version) VH: EVQLLESGGGLVKPGGSLRLSCAASGFTFSSYSMNWVRQAPGKGLEWVSSISTSSNFIYYADSVKGRFTISRDNAKNSLYLQMNSLRAEDTAVYYCARDLGRYYYYMDVWGKGTTVTVSS VL: DIVMTQSPSSLSASVGDRVTITCRASQSISSWLAWFQQKPGKAPKSLIYAASSLQSGVPSKFSGSGSGTDFTLTISSLQPEDVATYYCQKYNSAPFTFGPGTKVDIK in the same way.
MET

Consider next the binder Ab.24 Fab (Fab, V domains shown, Fab version) VH: EVQLLESGGGLVKPGGSLRLSCAASGFTFSSYSMNWVRQAPGKGLEWVSSISTSSSFIYYADSVKGRFTISRDNAKNSLYLQMNSLRAEDTAVYYCARDLGRYYYYMDVWGKGTTVTVSS VL: DIVMTQSPSSLSASVGDRVTITCRASQSISSWLAWYQQKPGKAPKSLIYAASSLQSGVPSKFSGSGSGTDFTLTISSLQPEDVATYYCQKYNSAPFTFGPGTKVDIK in the same way.
MET

Consider next the binder Ab.33 Fab (Fab, V domains shown, Fab version) VH: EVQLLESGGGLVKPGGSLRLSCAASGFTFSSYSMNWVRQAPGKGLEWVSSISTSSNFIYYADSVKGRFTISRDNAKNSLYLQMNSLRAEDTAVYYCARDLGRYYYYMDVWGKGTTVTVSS VL: DIVMTQSPSSLSASVGDRVTITCRASQSISSWLAWYQQKPGKAPKSLIYAASSLQSGVPSKFSGSGSGTDFTLTISSLQPEDVATYYCQQYNSAPFTFGPGTKVDIK in the same way.
MET

Consider next the binder Ab.25 Fab (Fab, V domains shown, Fab version; VH cell printed as 'SEO ID NO: 32') VH: EVQLLESGGGLVKPGGSLRLSCAASGFTFSSYSMNWVRQAPGKGLEWVSSISTSSNYIYYADSVKGRFTISRDNAKNSLYLQMNSLRAEDTAVYYCARDLGRYYYYMDVWGKGTTVTVSS VL: DIVMTQSPSSLSASVGDRVTITCRASQSISSWLAWYQQKPGKAPKSLIYAASSLQSGVPSKFSGSGSGTDFTLTISSLQPEDVATYYCQKYNSAPFTFGPGTKVDIK in the same way.
NOT MET

Consider next the binder Ab.32 Fab (Fab, V domains shown, Fab version) VH: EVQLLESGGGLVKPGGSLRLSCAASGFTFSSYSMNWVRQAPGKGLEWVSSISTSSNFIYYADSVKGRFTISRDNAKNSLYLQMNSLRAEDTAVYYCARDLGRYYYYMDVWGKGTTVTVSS VL: DIVMTQSPSSLSASVGDRVTITCRASQSISSWLAWYQQKPGKAPKSLIYAASSLQSGVPSKFSGSGSGTDFTLTISSLQPEDFATYYCQKYNSAPFTFGPGTKVDIK in the same way.
NOT MET

Consider next the binder Ab.34 Fab (Fab, V domains shown, Fab version) VH: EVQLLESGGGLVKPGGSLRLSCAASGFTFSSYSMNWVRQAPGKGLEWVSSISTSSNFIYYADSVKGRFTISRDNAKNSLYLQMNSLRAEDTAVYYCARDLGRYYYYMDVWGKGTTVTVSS VL: DIVMTQSPSSLSASVGDRVTITCRASQSISSWLAWYQQKPGKAPKSLIYAASSLQSGVPSKFSGSGSGTDFTLTISSLQPEDVATYYCQKYNSYPFTFGPGTKVDIK in the same way.
MET

Consider next the binder Ab.29 Fab (Fab, V domains shown, Fab version) VH: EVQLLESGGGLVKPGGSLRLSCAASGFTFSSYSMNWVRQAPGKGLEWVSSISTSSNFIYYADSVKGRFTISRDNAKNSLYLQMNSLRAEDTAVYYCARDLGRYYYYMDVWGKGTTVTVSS VL: DIVMTQSPSSLSASVGDRVTITCRASQSISSWLAWYQQKPGKVPKSLIYAASSLQSGVPSKFSGSGSGTDFTLTISSLQPEDVATYYCQKYNSAPFTFGPGTKVDIK in the same way.
NOT MET

Consider next the binder Ab.28 Fab (Fab, V domains shown, Fab version) VH: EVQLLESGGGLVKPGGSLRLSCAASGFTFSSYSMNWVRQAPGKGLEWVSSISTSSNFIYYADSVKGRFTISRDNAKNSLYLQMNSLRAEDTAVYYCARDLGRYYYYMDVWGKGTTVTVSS VL: DIVMTQSPSSLSASVGDRVTITCRASQSISSWLAWYQQKPEKAPKSLIYAASSLQSGVPSKFSGSGSGTDFTLTISSLQPEDVATYYCQKYNSAPFTFGPGTKVDIK in the same way.
MET

Consider next the binder ATX-130 Fab (Fab, V domains shown, Fab version) VH: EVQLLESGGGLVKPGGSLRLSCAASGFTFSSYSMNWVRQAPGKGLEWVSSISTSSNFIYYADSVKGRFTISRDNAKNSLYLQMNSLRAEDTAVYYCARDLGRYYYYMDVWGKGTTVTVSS VL: DIVMTQSPSSLSASVGDRVTITCRASQSISSWLAWYQQKPGKAPKSLIYAASSLQSGVPSKFSGSGSGTDFTLTISSLQPEDVATYYCQKYNSAPFTFGPGTKVDIK in the same way.
NOT MET

// switching to the query binder
In plain terms: is recorded koff at least 0.004 s⁻¹ for Ab.26 Fab (Fab, V domains shown, Fab version) VH: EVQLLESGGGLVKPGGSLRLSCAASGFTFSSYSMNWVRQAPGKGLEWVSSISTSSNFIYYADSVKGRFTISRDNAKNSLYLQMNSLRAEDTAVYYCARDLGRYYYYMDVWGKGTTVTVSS VL: DIQMTQSPSSLSASVGDRVTITCRASQSISSWLAWYQQKPGKAPKSLIYAASSLQSGVPSKFSGSGSGTDFTLTISSLQPEDVATYYCQKYNSAPFTFGPGTKVDIK ?
MET
